B1: HDV Ribozyme (parent)
chain: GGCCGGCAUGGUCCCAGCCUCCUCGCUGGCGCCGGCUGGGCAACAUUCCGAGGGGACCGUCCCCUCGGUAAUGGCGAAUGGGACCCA

Variants of: B1
assay info: self-cleavage, relative activity (ratio to wild type); higher = more cleavage; co-transcriptional
Please enter y where self-cleavage is greater than or equal to 0.6, and n where it is lower.

In plain terms: is recorded self-cleavage at least 0.6 for C14A G68A ?
y

In plain terms: is recorded self-cleavage at least 0.6 for A45G G81C ?
n

In plain terms: is recorded self-cleavage at least 0.6 for A8C C61A ?
y

In plain terms: is recorded self-cleavage at least 0.6 for C24A A51G ?
y

In plain terms: is recorded self-cleavage at least 0.6 for C57A U79A ?
y

In plain terms: is recorded self-cleavage at least 0.6 for A77C C84U ?
n

In plain terms: is recorded self-cleavage at least 0.6 for C85A C86A ?
y

In plain terms: is recorded self-cleavage at least 0.6 for C18A A70U ?
n

In plain terms: is recorded self-cleavage at least 0.6 for A45G U72C ?
y

In plain terms: is recorded self-cleavage at least 0.6 for G1A C4U ?
n

In plain terms: is recorded self-cleavage at least 0.6 for G5A G74C ?
n

In plain terms: is recorded self-cleavage at least 0.6 for U37A G80C ?
n

In plain terms: is recorded self-cleavage at least 0.6 for C19U A71U ?
n

In plain terms: is recorded self-cleavage at least 0.6 for C19U G59U ?
n

In plain terms: is recorded self-cleavage at least 0.6 for G6C U72C ?
n

In plain terms: is recorded self-cleavage at least 0.6 for U47C A83C ?
n

In plain terms: is recorded self-cleavage at least 0.6 for G29A C86A ?
n

In plain terms: is recorded self-cleavage at least 0.6 for G6U G17A ?
n

In plain terms: is recorded self-cleavage at least 0.6 for A43U G52U ?
n

In plain terms: is recorded self-cleavage at least 0.6 for C3U G74A ?
n

In plain terms: is recorded self-cleavage at least 0.6 for A56U G68C ?
y

In plain terms: is recorded self-cleavage at least 0.6 for C7A A83U ?
n

In plain terms: is recorded self-cleavage at least 0.6 for G1U G39A ?
n

In plain terms: is recorded self-cleavage at least 0.6 for C26A G59A ?
y

In plain terms: is recorded self-cleavage at least 0.6 for C3U G39U ?
n

In plain terms: is recorded self-cleavage at least 0.6 for G50A U72G ?
n

In plain terms: is recorded self-cleavage at least 0.6 for G50U A87C ?
y

In plain terms: is recorded self-cleavage at least 0.6 for C22U U60A ?
y
